- TARGET_DESC: CRTh2 receptor (Homo sapiens)
- Sequence (Q9Y5Y4 1-395): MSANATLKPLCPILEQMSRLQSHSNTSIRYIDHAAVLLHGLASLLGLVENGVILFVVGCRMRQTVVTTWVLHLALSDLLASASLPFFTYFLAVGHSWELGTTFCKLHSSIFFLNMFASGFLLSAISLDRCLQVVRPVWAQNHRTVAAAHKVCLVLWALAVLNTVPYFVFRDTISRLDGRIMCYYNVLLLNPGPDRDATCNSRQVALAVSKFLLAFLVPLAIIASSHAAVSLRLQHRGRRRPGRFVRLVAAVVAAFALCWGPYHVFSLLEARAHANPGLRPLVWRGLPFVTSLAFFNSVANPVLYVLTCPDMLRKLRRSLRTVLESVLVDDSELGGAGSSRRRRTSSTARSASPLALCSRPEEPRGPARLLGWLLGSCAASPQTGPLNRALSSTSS
VALUE_KIND: log10 of IC50 (log10 of the value in nM)

[
  {
    "MOLECULE": "Cc1c(CC(=O)O)c(-c2ccccc2)nn1Cc1ccccc1S(=O)(=O)c1ccccc1 [Example 15]",
    "log10 of IC50": 0.83
  },
  {
    "MOLECULE": "Cc1nn(Cc2ccccc2S(=O)(=O)c2ccccc2)c(C)c1CC(=O)O [Example 13]",
    "log10 of IC50": 1.93
  },
  {
    "MOLECULE": "Cc1ccc(NC(=O)Nc2cccc(Cn3nc(C)c(CC(=O)O)c3C)c2)cc1 [Example 4]",
    "log10 of IC50": 2.57
  },
  {
    "MOLECULE": "Cc1c(CC(=O)O)c(-c2ccc(Cl)cc2)nn1Cc1ccccc1S(=O)(=O)N1CCOCC1 [Example 25]",
    "log10 of IC50": 1.97
  },
  {
    "MOLECULE": "Cc1c(CC(=O)O)c(-c2ccccc2)nn1Cc1ccccc1Cc1ccccc1 [Example 24]",
    "log10 of IC50": 2.02
  }
]
